# targetUnderTest: recombinant form of Glutaminase 1 (GAC) (Homo sapiens, UniProt O94925)
# testProtocol: Recombinant Enzyme Assay (GAC coupled to GDH, NADH absorbance, no preincubation)
# Type: biochemical
# assayContext: no preincubation; read-out: GAC Delta N2 IC50 no preinc
attributeMeasured: log10 of IC50 (log10 of the value in nM)

{"compound": "CO[C@H](C(=O)Nc1nnc(CCCCc2nnc(NC(=O)[C@@H](OC)c3ccccc3)s2)s1)c1ccccc1 [Compound 148]", "log10 of IC50": 2.77}
{"compound": "O=C(Cc1ccccc1)Nc1nnc(CCSCc2nnc(NC(=O)Cc3ccccc3)s2)s1 [Compound 199]", "log10 of IC50": 2.08}
{"compound": "O=C(C[C@@H](O)C(=O)O)Nc1nnc(CCCCc2nnc(NC(=O)C[C@@H](O)C(=O)O)s2)s1 [Compound 154]", "log10 of IC50": 4.28}
{"compound": "Cn1cc(CC(=O)Nc2nnc(CCCCc3nnc(NC(=O)Cc4cn(C)c5ccccc45)s3)s2)c2ccccc21 [Compound 201]", "log10 of IC50": 3.43}
{"compound": "O=C(Nc1nnc(CCCCc2nnc(NC(=O)C3CCCO3)s2)s1)C1CCCO1 (stereo not drawn) [Compound 54]", "log10 of IC50": 3.96}
{"compound": "O=C(Nc1nnc(CCCCc2nnc(NC(=O)C(O)c3cccc(F)c3F)s2)s1)C(O)c1cccc(F)c1F (stereo not drawn) [Compound 211]", "log10 of IC50": 3.08}
{"compound": "O=C(Nc1nnc(CCCCc2nnc(NC(=O)C3(c4ccccc4)CCOCC3)s2)s1)C1(c2ccccc2)CCOCC1 [Compound 166]", "log10 of IC50": 3.87}
{"compound": "O=C(Cc1ccccc1)Nc1nnc(CCSCc2nnc(NC(=O)C(O)c3cccc(Cl)c3)s2)s1 (stereo not drawn) [Compound 376]", "log10 of IC50": 2.54}
{"compound": "O=C(Cc1ccccc1)Nc1nnc(CCCCc2nnc(NC(=O)Cc3cccnc3)s2)s1 [Compound 309]", "log10 of IC50": 2.04}
{"compound": "O=C(Cc1cccc(F)c1)Nc1nnc(CCCCc2nnc(NC(=O)Cc3cccc(F)c3)s2)s1 [Compound 273]", "log10 of IC50": 2.15}
{"compound": "NCC(C(=O)Nc1nnc(CCCCc2nnc(NC(=O)C(CN)c3ccccc3)s2)s1)c1ccccc1 (stereo not drawn) [Compound 231]", "log10 of IC50": 3.87}
{"compound": "O=C(Nc1nnc(CCCCc2nnc(NC(=O)C3CC(O)c4ccccc43)s2)s1)C1CC(O)c2ccccc21 (stereo not drawn) [Compound 94]", "log10 of IC50": 2.45}
{"compound": "NS(=O)(=O)c1ccc(CC(=O)Nc2nnc(CCCCc3nnc(NC(=O)Cc4ccc(S(N)(=O)=O)cc4)s3)s2)cc1 [Compound 198]", "log10 of IC50": 2.26}
{"compound": "O=C(Cc1ccc2ncccc2c1)Nc1nnc(CCCCc2nnc(NC(=O)Cc3ccc4ncccc4c3)s2)s1 [Compound 269]", "log10 of IC50": 2.41}
{"compound": "CN(C)c1ccc(CC(=O)Nc2nnc(CCSCCc3nnc(NC(=O)Cc4ccc(N(C)C)cc4)s3)s2)cc1 [Compound 162]", "log10 of IC50": 2.36}
{"compound": "O=C(Cn1cccn1)Nc1nnc(CCCCc2nnc(NC(=O)Cn3cccn3)s2)s1 [Compound 60]", "log10 of IC50": 4.38}
{"compound": "CC1(C)OC(=O)[C@@H](CC(=O)Nc2nnc(CCCCc3nnc(NC(=O)C[C@H]4OC(C)(C)OC4=O)s3)s2)O1 [Compound 103]", "log10 of IC50": 4.28}
{"compound": "O=C(Nc1nnc(CCCCc2nnc(NC(=O)C(OCCO)c3ccccc3)s2)s1)C(OCCO)c1ccccc1 (stereo not drawn) [Compound 252]", "log10 of IC50": 3.08}
{"compound": "COCCC(=O)Nc1nnc(CCCCc2nnc(NC(=O)CCOC)s2)s1 [Compound 100]", "log10 of IC50": 3.91}
{"compound": "O=C(Cc1ccccc1)Nc1nnc(CCSCCc2nnc(NC(=O)Cc3cccnc3)s2)s1 [Compound 347]", "log10 of IC50": 2.34}
{"compound": "O=C(Nc1nnc(CCCCc2nnc(NC(=O)C3COc4ccccc4O3)s2)s1)C1COc2ccccc2O1 (stereo not drawn) [Compound 52]", "log10 of IC50": 3.92}
